Target: CDK12/CycK (Homo sapiens)
Sequence (Q9NYV4 with tags, fused parts or gaps): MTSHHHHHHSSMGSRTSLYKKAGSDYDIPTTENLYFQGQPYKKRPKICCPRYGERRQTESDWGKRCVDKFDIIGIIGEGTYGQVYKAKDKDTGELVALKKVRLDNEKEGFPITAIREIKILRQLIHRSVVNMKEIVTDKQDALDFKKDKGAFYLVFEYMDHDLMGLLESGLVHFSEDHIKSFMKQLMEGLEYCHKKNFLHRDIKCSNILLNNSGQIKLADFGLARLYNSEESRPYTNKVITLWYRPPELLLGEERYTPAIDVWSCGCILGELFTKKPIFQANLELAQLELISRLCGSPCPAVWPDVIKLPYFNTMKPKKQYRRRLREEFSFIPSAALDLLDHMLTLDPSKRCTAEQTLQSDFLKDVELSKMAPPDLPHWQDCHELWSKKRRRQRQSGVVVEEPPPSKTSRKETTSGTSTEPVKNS
Sequence (O75909 1-300 partner limits assumed): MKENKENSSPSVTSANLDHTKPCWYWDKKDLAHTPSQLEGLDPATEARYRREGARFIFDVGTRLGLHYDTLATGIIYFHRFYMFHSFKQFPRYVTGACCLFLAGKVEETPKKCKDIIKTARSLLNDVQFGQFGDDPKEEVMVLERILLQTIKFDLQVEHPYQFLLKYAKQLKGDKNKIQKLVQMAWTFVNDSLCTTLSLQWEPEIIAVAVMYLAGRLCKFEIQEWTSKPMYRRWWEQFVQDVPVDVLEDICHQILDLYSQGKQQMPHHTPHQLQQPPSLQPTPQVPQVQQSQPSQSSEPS
Assay: CDK12/CycK high ATP kinase assay (TR-FRET, 2 mM ATP)
Conditions: 2 mM ATP (high ATP); median; read-out: CDK12/CyclinK, 2 mM ATP (high ATP), IC50-[mol/l] (median)
Reported property: IC50 (µM)

Here's what some known entries look like.
Input line: Which IC50 reading was recorded for the molecule `FC(F)n1cc(-c2cnn3c(NCc4nc5ccccc5[nH]4)nc(N4CCOCC4)nc23)cn1` ?
Output line: 8.58

Input line: Which IC50 reading was recorded for the molecule `CN(CC(C)(C)O)c1nc(NCc2nc3cc(C(F)(F)F)ccc3[nH]2)n2ncc(C3CC3)c2n1` ?
Output line: 2.85

(P) Fc1cc2nc(CNc3nc(N4CCOCC4)nc4c(C(F)(F)F)cnn34)[nH]c2cc1F
(Q) OCC1CN(c2nc(NCc3nc4ccccc4[nH]3)n3ncc(Br)c3n2)C1
Input line: API: POST /compare with P and Q ; response names the item with higher IC50. Pick one; state its label.
Output line: Q
(Q: 12.5 µM, P: 0.142 µM)
